# Tested on: BT-549
# assay_summary: NCI tumour cell line growth inhibition, 48 h
Calls of active or inactive are those of the source. No stated cut-off is given here; in the data, active = GI50 up to about 1.1 µM and inactive = higher. Square brackets hold non-standard residues; d marks the D form. Peptide text beside a SMILES is read from it. ξ: configuration not given here. ξ2Thi = NC(Cc1cccs1)C(=O)O; ξR = N=C(N)NCCCC(N)C(=O)O; ξI = CCC(C)C(N)C(=O)O; ξL = CC(C)CC(N)C(=O)O; ξK = NCCCCC(N)C(=O)O; ξT = CC(O)C(N)C(=O)O; ξA = CC(N)C(=O)O
Result category, one only: active, inactive

[
  {
    "compound": "Cc1ccc2c(/C=C/c3ccc(N(C)C)cc3)ccc(C(C)C)cc1-2",
    "label_class": "inactive"
  },
  {
    "compound": "CC1=NN(c2ccccc2Cl)C2(C1)SCC(=O)N2c1nc2ccccc2s1 (configuration not stated)",
    "label_class": "inactive"
  },
  {
    "compound": "CCC(C)C(NC(=O)C(Cc1cccs1)NC(=O)C(CC(C)C)NC(=O)C(CC(C)C)NC(=O)C(CCCCN)NC(=O)C(CCCN=C(N)N)NC(=O)[C@H](Cc1ccc(O)cc1)NC(=O)C(NC(=O)C(C)NC(=O)C(N)CC(C)C)C(C)O)C(=O)NC(CC(C)C)C(N)=O (some centres not stated) (H-[ξL][ξA][ξT]Y[ξR][ξK][ξL][ξL][ξ2Thi][ξI][ξL]-NH2)",
    "label_class": "inactive"
  },
  {
    "compound": "CC(=O)OC1COC(n2c(-c3ccc(Cl)cc3)cc(-c3ccccc3)c(C#N)c2=S)C(OC(C)=O)C1OC(C)=O (configuration not stated)",
    "label_class": "inactive"
  },
  {
    "compound": "CCOC(=O)/C(C#N)=C(/NS(=O)(=O)c1cc(C)c(Cl)cc1[S-])[n+]1ccc(N(C)C)cc1",
    "label_class": "inactive"
  },
  {
    "compound": "CC(=O)Nc1cccc(N2C(=O)/C(=C\\c3cccc(Oc4ccccc4)c3)SC2c2ccccc2)c1 (configuration not stated)",
    "label_class": "inactive"
  },
  {
    "compound": "CCOC(=O)c1c(N)sc2c1C(C(=O)OCC)CCCC2 (configuration not stated)",
    "label_class": "inactive"
  },
  {
    "compound": "N#CSc1ccc(S(N)(=O)=O)cc1",
    "label_class": "inactive"
  },
  {
    "compound": "Cc1ccc2c(c1)C(=O)C1(C2)Cc2c(C)cccc2C1=O (configuration not stated)",
    "label_class": "inactive"
  },
  {
    "compound": "OC1(c2ccc(Cl)cc2)c2ccccc2C2=NCc3ccccc3CN21 (configuration not stated)",
    "label_class": "inactive"
  }
]

[Q] Hi team, can someone confirm the assay call for COC1=CC(=O)N(C(=O)C2CSC(C(CO)NC(=O)c3csc(/C=N/O)n3)=N2)C1 (configuration not stated) ?
[A] inactive

[Q] Hi team, can someone confirm the assay call for CNc1cc(OCc2ccccc2)c(OC)cc1C(=O)N1CCC[C@H]1CO ?
[A] inactive

// provenance: ChEMBL document CHEMBL1201862
